# credit: paper PMC13376213

systemName: USP20 DUSP2 domain, tag cleaved (for FP) (human)
Sequence (chain, as listed by the source): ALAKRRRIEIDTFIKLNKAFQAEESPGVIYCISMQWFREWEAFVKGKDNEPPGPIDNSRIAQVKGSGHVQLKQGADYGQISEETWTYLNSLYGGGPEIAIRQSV
runDescription: FP
readoutLabel: Kd (µM)

Ac-SDDDLAWNIAPQGLQ-NH2 [GPR137B_(348-362) peptide] :: 10
Ac-PYIPMDDDFQLRSFDQLS-NH2 [HIF1A 564-581] :: 19

A = Ac-DVVDDFQLQHRHGPG-NH2 [MFSD2B_(395-409) peptide]
B = Ac-PYIPMDKDFQLRSFDQLS-NH2 [HIF1A 564-581 D570K]
Which has the higher Kd, A or B ? Give the label under which the chosen entry appears. A
(A: 45 µM, B: 19 µM)
